biological target: T1, human CD4 on cells (SKW3 cells; human PBMCs) (human, UniProt P01730 26-458); experiment: SKW3 FACS binning; competitor OKT4-A488 added after supernatant (background 2163, max binding 8200)
T1 construct: whole, on cells; SKW3 CD4 knockout cells served as the negative cell line for the WT vs KO ratios; also called hCD4; SKW3 WT
Everything with OKT4 A488 signal in binning lower than 9000 is Not fulfilled; everything else, including exactly 9000, is Fulfilled.

BINDER | LABEL VALUE
75110_07J24A (antibody, V domains shown, Tested as non-clonal hybridoma supernatant (AlivaMab Mouse Kappa), detected with anti-mouse Fc and anti-human kappa) VH: QAQLQESGPGLVKPSETLSLTCTVSGGSISSYYYNWIRQPAGKGLEWIGRIYTSGRTDYNPSLKSRVTMSADTSKNQFSLKLSSVTAADTAVYYCARDEGPTDAFDIWGQGTMVTVSS VL: DIVMTQTPLSLPVTPGEPASISCRSSQSLLDSDDGNTYLDWYLQKPGQSPHLLIYTLSYRASGVPDRFSGSGSGSDFTLKISRVEAEDVGVYYCMQRIEFPFTFGPGTKVDIK | Not fulfilled
75110_01C18A (antibody, V domains shown, Tested as non-clonal hybridoma supernatant (AlivaMab Mouse Kappa), detected with anti-mouse Fc and anti-human kappa) VH: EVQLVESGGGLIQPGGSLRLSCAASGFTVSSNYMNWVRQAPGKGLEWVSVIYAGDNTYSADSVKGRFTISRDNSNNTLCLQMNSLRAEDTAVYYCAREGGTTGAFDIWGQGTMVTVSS VL: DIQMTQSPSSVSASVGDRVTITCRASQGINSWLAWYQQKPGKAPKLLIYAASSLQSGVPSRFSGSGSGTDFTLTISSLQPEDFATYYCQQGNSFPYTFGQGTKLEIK | Fulfilled
75110_05A11A (antibody, V domains shown, Tested as non-clonal hybridoma supernatant (AlivaMab Mouse Kappa), detected with anti-mouse Fc and anti-human kappa) VH: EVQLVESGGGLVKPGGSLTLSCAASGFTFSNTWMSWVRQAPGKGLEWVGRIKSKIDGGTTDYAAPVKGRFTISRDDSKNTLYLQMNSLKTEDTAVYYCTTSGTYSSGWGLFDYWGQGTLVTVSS VL: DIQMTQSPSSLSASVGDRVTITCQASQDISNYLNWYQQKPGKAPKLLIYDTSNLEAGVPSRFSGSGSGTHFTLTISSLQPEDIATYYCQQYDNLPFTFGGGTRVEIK | Not fulfilled
75110_04H17A (antibody, V domains shown, Tested as non-clonal hybridoma supernatant (AlivaMab Mouse Kappa), detected with anti-mouse Fc and anti-human kappa) VH: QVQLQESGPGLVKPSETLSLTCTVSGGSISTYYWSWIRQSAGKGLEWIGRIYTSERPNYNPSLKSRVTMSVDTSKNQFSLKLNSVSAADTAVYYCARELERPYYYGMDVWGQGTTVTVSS VL: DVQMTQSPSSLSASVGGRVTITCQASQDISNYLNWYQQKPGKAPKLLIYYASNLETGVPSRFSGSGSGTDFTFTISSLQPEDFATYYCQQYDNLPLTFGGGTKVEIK | Fulfilled
75110_05E13A (antibody, V domains shown, Tested as non-clonal hybridoma supernatant (AlivaMab Mouse Kappa), detected with anti-mouse Fc and anti-human kappa) VH: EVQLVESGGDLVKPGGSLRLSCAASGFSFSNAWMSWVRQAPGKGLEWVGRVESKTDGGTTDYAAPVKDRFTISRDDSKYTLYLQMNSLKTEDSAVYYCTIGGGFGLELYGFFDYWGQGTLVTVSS VL: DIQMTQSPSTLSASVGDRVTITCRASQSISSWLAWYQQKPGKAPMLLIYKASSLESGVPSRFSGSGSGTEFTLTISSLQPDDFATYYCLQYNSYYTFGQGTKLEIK | Fulfilled

Ref: patent US20220112288A1
